Where do these numbers come from? They come from patent US20240148821A1.

biological target: protein-protein interaction between Kras and SOS1 (biotin-tagged human Kras loaded with GDP, His-tagged human SOS1) (Homo sapiens (Human), UniProt P01116, G12D); test: Protein-protein interaction inhibition between Kras and SOS1 (KrasG12D-SOS PPI) using AlphaScreen; format: biochemical; settings: AlphaScreen; biotin-tagged human Kras loaded with GDP, His-tagged human SOS1; read-out: KRAS G12D-SOS PPI IC50
Bridge positions count the residues as written; N and C are the ends. Square brackets hold non-standard residues; d marks the D form. Peptide text beside a SMILES is read from it. * marks the point of attachment. hPhe(3-Cl-4-CF3) = N[C@@H](CCc1ccc(C(F)(F)F)c(Cl)c1)C(=O)O; NMeCha = CN[C@@H](CC1CCCCC1)C(=O)O; Hyp = O=C(O)[C@@H]1C[C@@H](O)CN1; NMeChg = CN[C@H](C(=O)O)C1CCCCC1; NMeD = CN[C@@H](CC(=O)O)C(=O)O; NMeL = CN[C@@H](CC(C)C)C(=O)O; Piperidide = C1CCN(*)CC1; Ac5c = NC1(C(=O)O)CCCC1; X9 = c1cncc(C*)c1; Sar = CNCC(=O)O
Experimental endpoint: IC50 (nM)
The reply should be a number in nM, with the unit left off.

// IC50 lookup, compound = CC[C@H](C)[C@@H]1NC(=O)[C@H](CC(C)C)N(C)C(=O)C[C@@H](C(=O)N2CCCCC2)N(C)C(=O)[C@H](C2CCCCC2)N(C)C(=O)C2(CCCC2)NC(=O)[C@@H]2C[C@@H](OCc3cccnc3)CN2C(=O)[C@H](CCc2ccc(C(F)(F)F)c(Cl)c2)NC(=O)CN(C)C(=O)[C@H](CC2CCCCC2)N(C)C(=O)CN(C)C(=O)CN(C)C1=O [Compound 2121] ([NMeL]I[Sar][Sar][NMeCha][Sar][hPhe(3-Cl-4-CF3)][Hyp](X9)[Ac5c][NMeChg][NMeD]-Piperidide; lactam N-11) , result: 0.56

====

target: protein-protein interaction between Kras and SOS1 (biotin-tagged human Kras loaded with GDP, His-tagged human SOS1) (Homo sapiens (Human), UniProt P01116, G12D); experiment: Protein-protein interaction inhibition between Kras and SOS1 (KrasG12D-SOS PPI) using AlphaScreen; type: biochemical; details: AlphaScreen; biotin-tagged human Kras loaded with GDP, His-tagged human SOS1; read-out: KRAS G12D-SOS PPI IC50;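 note: kras produced in E. coli, Ni-coupled donor beads and streptavidin acceptor beads, excitation 680 nm with emission detected at 520–620 nm via singlet oxygen transfer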
pIC50: −log10 of the molar value. Numbered stars: 1 amine (or outer) side, 2 acyl side, 3 side chain; on linkers, the order of the positions; unused ones are H or OH. Bridge positions count the residues as written; N and C are the ends. Square brackets hold non-standard residues; d marks the D form. Peptide text beside a SMILES is read from it. * marks the point of attachment. hPhe(3,5-F2-4-CF3) = N[C@@H](CCc1cc(F)c(C(F)(F)F)c(F)c1)C(=O)O; hPhe(3-Cl-4-CF3) = N[C@@H](CCc1ccc(C(F)(F)F)c(Cl)c1)C(=O)O; NMePhe(4-CF3) = CN[C@@H](Cc1ccc(C(F)(F)F)cc1)C(=O)O; X71 = O=C([C@H](CCc1ccc(C(F)(F)F)cc1F)N[*:1])[*:2]; hPhe(4-CF3) = N[C@@H](CCc1ccc(C(F)(F)F)cc1)C(=O)O; NMeAbu(4,4,4-F3) = CN[C@@H](CC(F)(F)F)C(=O)O; NMePhe(4-Cl) = CN[C@@H](Cc1ccc(Cl)cc1)C(=O)O; NMedβ3hAla = C[C@H](CC(=O)[*:2])N(C)[*:1]; hPhe(4-F) = N[C@@H](CCc1ccc(F)cc1)C(=O)O; NMeGly(cPent) = CN[C@H](C(=O)O)C1CCCC1; NMeCha = CN[C@@H](CC1CCCCC1)C(=O)O; Hyp = O=C(O)[C@@H]1C[C@@H](O)CN1; NMeChg = CN[C@H](C(=O)O)C1CCCCC1; NMeF = CN[C@@H](Cc1ccccc1)C(=O)O; NMeI = CC[C@H](C)[C@H](NC)C(=O)O; d(β3hL) = CC(C)C[C@@H](N)CC(=O)O; NMeD = CN[C@@H](CC(=O)O)C(=O)O; NMeL = CN[C@@H](CC(C)C)C(=O)O; NMeV = CN[C@H](C(=O)O)C(C)C; Morpholide = C1CN(*)CCO1; NMeA = CN[C@@H](C)C(=O)O; Piperidide = C1CCN(*)CC1; Pyrrolidide = C1CCN(*)C1; Ac5c = NC1(C(=O)O)CCCC1; Aze = O=C(O)[C@@H]1CCN1; Sar = CNCC(=O)O
Could you label it yes if measured pIC50 is 7 or higher, and no otherwise?

{"Compound": "CC[C@H](C)[C@@H]1NC(=O)[C@H](C)N(C)C(=O)C[C@@H](CC(C)C)NC(=O)[C@H](C(C)C)N(C)C(=O)[C@H](Cc2ccccc2)N(C)C(=O)[C@H](CC(C)C)N(C)C(=O)[C@H](CCc2ccc(C(F)(F)F)cc2)NC(=O)CN(C)C(=O)[C@H](Cc2ccc(Cl)cc2)N(C)C(=O)CN(C)C(=O)CN(C)C1=O [Compound 972] (cyclo(I[Sar][Sar][NMePhe(4-Cl)][Sar][hPhe(4-CF3)][NMeL][NMeF][NMeV][d(β3hL)][NMeA]))", "Category label": "no"}
{"Compound": "CC[C@H](C)[C@@H]1NC(=O)[C@H](C)N(C)C(=O)C[C@@H](C(=O)N2CCCCC2)N(C)C(=O)[C@H](C(C)C)N(C)C(=O)C2(CCCC2)NC(=O)[C@@H]2CCCN2C(=O)[C@H](CCc2ccc(F)cc2)NC(=O)CN(C)C(=O)[C@H](CC2CCCCC2)N(C)C(=O)[C@@H]2CCN2C(=O)[C@H](C)N(C)C1=O [Compound 860] ([NMeA]I[NMeA][Aze][NMeCha][Sar][hPhe(4-F)]P[Ac5c][NMeV][NMeD]-Piperidide; lactam N-11)", "Category label": "no"}
{"Compound": "CCO[C@@H]1C[C@H]2C(=O)NC3(CCCC3)C(=O)N(C)[C@@H](C3CCCCC3)C(=O)N(C)[C@H](C(=O)N3CCOCC3)CC(=O)N(C)[C@@H](CC(F)(F)F)C(=O)N[C@@H]([C@@H](C)CC)C(=O)N(C)CC(=O)N(C)CC(=O)N(C)[C@@H](Cc3ccc(C(F)(F)F)cc3)C(=O)N(C)CC(=O)N[C@@H](CCc3ccc(C(F)(F)F)c(Cl)c3)C(=O)N2C1 [Compound 1206] ([NMeAbu(4,4,4-F3)]I[Sar][Sar][NMePhe(4-CF3)][Sar][hPhe(3-Cl-4-CF3)][Hyp](Et)[Ac5c][NMeChg][NMeD]-Morpholide; lactam N-11)", "Category label": "yes"}

Query block: Test whether the compound CC[C@H](C)[C@@H]1NC(=O)[C@H](CC(C)C)N(C)C(=O)C[C@@H](C)N(C)C(=O)[C@H](C2CCCC2)N(C)C(=O)C2(CCCC2)NC(=O)[C@@H]2CCCN2C(=O)[C@H](CCc2cc(F)c(C(F)(F)F)c(F)c2)NC(=O)CN(C)C(=O)[C@H](Cc2ccc(C(F)(F)F)cc2)N(C)C(=O)[C@@H]2CCN2C(=O)[C@H](C)N(C)C1=O [Compound 371] (cyclo([Ac5c][NMeGly(cPent)][NMedβ3hAla][NMeL]I[NMeA][Aze][NMePhe(4-CF3)][Sar][hPhe(3,5-F2-4-CF3)]P)) records pIC50 of 7 or higher.
Result block: yes

Query block: Is pIC50 for CC[C@H](C)[C@@H]1NC(=O)[C@H](C)N(C)C(=O)C[C@@H](C(=O)N2CCCC2)NC(=O)[C@H](CC(C)C)N(C)C(=O)[C@H](Cc2ccccc2)N(C)C(=O)[C@@H]2CCCN2C(=O)[C@H](CCc2ccc(C(F)(F)F)cc2F)NC(=O)CN(C)C(=O)[C@H](Cc2ccc(Cl)cc2)N(C)C(=O)CN(C)C(=O)CN(C)C1=O [Compound 2096] ([NMeA]I[Sar][Sar][NMePhe(4-Cl)][Sar][X71]P[NMeF][NMeL]D-Pyrrolidide; lactam N-11) at or above 7?
Result block: yes

Query block: Could you verify whether the entry CC[C@H](C)[C@@H]1NC(=O)[C@H](CC(C)C)N(C)C(=O)C[C@@H](CC(C)C)NC(=O)[C@H]([C@@H](C)CC)N(C)C(=O)C2(CCCC2)NC(=O)[C@@H]2CCCN2C(=O)[C@H](CCc2ccc(C(F)(F)F)c(Cl)c2)NC(=O)CN(C)C(=O)[C@H](Cc2ccc(C(F)(F)F)cc2)N(C)C(=O)[C@@H]2CCN2C(=O)[C@H](C)N(C)C1=O [Compound 1899] (cyclo([Ac5c][NMeI][d(β3hL)][NMeL]I[NMeA][Aze][NMePhe(4-CF3)][Sar][hPhe(3-Cl-4-CF3)]P)) shows pIC50 of no less than 7?
Result block: no
